Provenance of the data: patent US20210369677A1

- test.target: PKD2 (Homo sapiens)
- Sequence (Q13563 whole entry): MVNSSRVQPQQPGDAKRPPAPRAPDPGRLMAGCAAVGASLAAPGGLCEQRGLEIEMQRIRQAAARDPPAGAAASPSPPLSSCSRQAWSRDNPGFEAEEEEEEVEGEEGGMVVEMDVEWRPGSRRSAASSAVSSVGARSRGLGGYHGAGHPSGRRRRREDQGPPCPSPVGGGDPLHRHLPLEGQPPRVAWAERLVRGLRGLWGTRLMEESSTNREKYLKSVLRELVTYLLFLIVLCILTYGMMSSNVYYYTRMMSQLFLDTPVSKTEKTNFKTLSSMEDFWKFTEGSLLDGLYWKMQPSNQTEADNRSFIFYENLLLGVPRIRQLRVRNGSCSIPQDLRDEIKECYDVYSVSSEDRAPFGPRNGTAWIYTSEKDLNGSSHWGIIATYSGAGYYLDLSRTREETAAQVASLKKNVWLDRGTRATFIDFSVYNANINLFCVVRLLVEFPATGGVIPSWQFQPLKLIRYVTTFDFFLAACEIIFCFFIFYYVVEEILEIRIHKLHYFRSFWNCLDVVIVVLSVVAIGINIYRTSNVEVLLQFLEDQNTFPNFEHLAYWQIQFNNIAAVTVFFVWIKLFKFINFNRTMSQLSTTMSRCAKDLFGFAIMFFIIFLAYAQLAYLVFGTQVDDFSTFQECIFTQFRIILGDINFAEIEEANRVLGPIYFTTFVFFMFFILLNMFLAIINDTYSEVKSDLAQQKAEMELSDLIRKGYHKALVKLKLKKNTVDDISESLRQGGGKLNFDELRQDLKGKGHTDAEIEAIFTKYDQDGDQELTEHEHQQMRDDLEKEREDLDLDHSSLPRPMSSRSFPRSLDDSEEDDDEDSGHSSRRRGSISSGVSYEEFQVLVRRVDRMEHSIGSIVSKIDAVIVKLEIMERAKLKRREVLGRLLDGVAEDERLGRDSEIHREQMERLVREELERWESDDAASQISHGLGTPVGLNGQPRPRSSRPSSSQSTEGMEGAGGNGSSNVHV
- test: P. pastoris PKD2 Ca2+-dependent yeast growth assay (Stage 1)
- Assay type: cell-based
- experimental.setup: P. pastoris strain Y5634; read-out: EC50, yeast growth dependent on stimulation of PKD2 cation transport
observable: EC50
Write your answer as a measured quantity: the number, then the unit.

The compound listed as O=C(Nc1cc(C(F)(F)F)ccc1O)Nc1cc(C(F)(F)F)ccc1O [NS1643] shows EC50 equal to 1.1 µM

====

- test.target: polycystin-2 channels (Mus musculus)
- Construct: the mouse channel orthologue under endogenous expression in the kidney collecting duct; endogenous in cells
- Sequence (O35245 whole entry): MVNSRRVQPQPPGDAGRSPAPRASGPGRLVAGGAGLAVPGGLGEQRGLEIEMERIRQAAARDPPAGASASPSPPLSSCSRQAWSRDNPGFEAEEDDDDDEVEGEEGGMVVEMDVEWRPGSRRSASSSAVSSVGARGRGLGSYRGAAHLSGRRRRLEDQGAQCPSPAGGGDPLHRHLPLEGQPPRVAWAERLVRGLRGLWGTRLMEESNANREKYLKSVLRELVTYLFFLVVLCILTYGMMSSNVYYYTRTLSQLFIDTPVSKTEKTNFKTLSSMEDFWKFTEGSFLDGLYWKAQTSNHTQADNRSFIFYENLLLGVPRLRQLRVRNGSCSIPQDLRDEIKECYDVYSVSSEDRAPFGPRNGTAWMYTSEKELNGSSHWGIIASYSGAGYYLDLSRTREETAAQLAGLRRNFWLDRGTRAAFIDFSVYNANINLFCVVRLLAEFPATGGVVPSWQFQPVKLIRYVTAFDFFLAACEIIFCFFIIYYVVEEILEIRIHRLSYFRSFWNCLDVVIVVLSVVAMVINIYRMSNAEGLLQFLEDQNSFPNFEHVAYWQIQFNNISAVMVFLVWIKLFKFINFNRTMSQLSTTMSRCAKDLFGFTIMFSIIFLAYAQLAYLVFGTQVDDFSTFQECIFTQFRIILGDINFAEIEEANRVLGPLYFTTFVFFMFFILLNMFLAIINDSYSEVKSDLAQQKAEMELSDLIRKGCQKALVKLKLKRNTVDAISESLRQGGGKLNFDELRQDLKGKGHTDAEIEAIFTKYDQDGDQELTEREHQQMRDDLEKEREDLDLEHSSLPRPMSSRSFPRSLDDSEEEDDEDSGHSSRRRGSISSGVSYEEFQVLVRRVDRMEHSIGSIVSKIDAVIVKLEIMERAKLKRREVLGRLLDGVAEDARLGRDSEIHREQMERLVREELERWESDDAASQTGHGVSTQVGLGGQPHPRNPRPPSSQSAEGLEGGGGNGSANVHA
- test: Inside-out cilia patch of pIMCD cells, calcium opening of polycystin-2 channels
- experimental.setup: Pkd2+/+ mice; read-out: EC50, potency of calcium opening polycystin-2 channels
observable: EC50 (nM)
Give bare numbers, in nM.

The compound listed as [Ca+2] shows EC50 equal to 1200
